system.tested: Avi-KRAS G12R (1-169) GppNHp/RAF1 RBD-3xFLAG (52-151) (Homo sapiens, UniProt P01116, G12R)
Construct: Avi-KRAS G12R (1-169)
Sequence (P01116 1-169 isoform P01116-2 G12R): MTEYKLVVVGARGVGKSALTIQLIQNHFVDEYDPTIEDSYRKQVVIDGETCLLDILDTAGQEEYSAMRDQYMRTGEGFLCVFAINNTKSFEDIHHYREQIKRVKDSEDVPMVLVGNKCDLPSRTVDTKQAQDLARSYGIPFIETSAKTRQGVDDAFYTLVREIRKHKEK
assay.comment: Raf1-KRAS G12R-GppNHP disruption HTRF assay (Biological Example 1)
Format: binding
condition.label: KRAS G12R, GppNHp-loaded; class symbols
pIC50: −log10 of the molar value.
Quick reference for pIC50 among some compounds
reported.metric: pIC50

1) CCN(c1nc(OC[C@@]23CCCN2C[C@H](F)C3)nc2c(F)c(-c3ccc(F)c4sc(N)c(C#N)c34)c(C(F)(F)F)cc12)[C@H]1CCN(C(=O)[C@H](C)OC)[C@@H]1C (atropisomer, axis not shown)	> 7.00
2) CCN(c1nc(OC[C@@]23CCCN2C[C@H](F)C3)nc2c(F)c(-c3ccc(F)c4sc(N)c(C#N)c34)c(C(F)(F)F)cc12)[C@H]1C[C@H](C)N(C(=O)c2ccon2)C1 (atropisomer, axis not shown)	> 7.00
3) CCN1C[C@H](N(CC)c2nc(OC[C@@]34CCCN3C[C@H](F)C4)nc3c(F)c(-c4ccc(F)c5sc(N)c(C#N)c45)c(C(F)(F)F)cc23)CC1=O (atropisomer, axis not shown)	6.00 to 7.00
4) CCN(c1nc(OC[C@@]23CCCN2C[C@H](F)C3)nc2c(F)c(-c3ccc(F)c4sc(N)c(C#N)c34)c(C(F)(F)F)cc12)[C@H]1CC(=O)N(C2CC2)C1 (atropisomer, axis not shown)	> 7.00
5) CCN1C[C@@H](N(C)c2nc(OC[C@@]34CCCN3C[C@H](F)C4)nc3c(F)c(-c4ccc(F)c5sc(N)c(C#N)c45)c(C(F)(F)F)cc23)CC1=O (atropisomer, axis not shown)	> 7.00
6) CCN(c1nc(OC[C@@]23CCCN2C[C@H](F)C3)nc2c(F)c(-c3ccc(F)c4sc(N)c(C#N)c34)c(C(F)(F)F)cc12)[C@H]1C[C@H]2CN(C3CC3)C(=O)N2C1 (atropisomer, axis not shown)	> 7.00
7) CCN(c1nc(OC[C@@]23CCCN2C[C@H](F)C3)nc2c(F)c(-c3ccc(F)c4sc(N)c(C#N)c34)c(C(F)(F)F)cc12)[C@H]1CCN(C(=O)N2C[C@@H]3C[C@H]2CO3)C1 (atropisomer, axis not shown)	> 7.00
8) CCN(c1nc(OC[C@@]23CCCN2C[C@H](F)C3)nc2c(F)c(-c3ccc(F)c4sc(N)c(C#N)c34)c(C(F)(F)F)cc12)[C@H]1CCN(C(=O)OCC2CC2)C1 (atropisomer, axis not shown)	> 7.00
9) Cc1nnn2c1CN(c1nc(OC[C@@]34CCCN3C[C@H](F)C4)nc3c(F)c(-c4ccc(F)c5sc(N)c(C#N)c45)c(C(F)(F)F)cc13)[C@@H](C)C2 (atropisomer, axis not shown)	6.00 to 7.00
